Assay: Half life in dog at 1 mg/kg, iv and 2 mg/kg, po
Format: ADME, organism-based, Canis lupus familiaris
Details: in vivo
REPORTED METRIC: half-life (h)

[
  {
    "QUERY SMILES": "CCS(=O)(=O)N[C@@H]1C[C@]2(C)O[C@]1(C)[C@@H]1C(=O)N(c3ccc(C#N)c(C(F)(F)F)c3)C(=O)[C@@H]12",
    "REPORTED METRIC": "half-life",
    "ASSAY VALUE": 21.8
  }
]

----------
Target: Cytochrome P450 2C9 (Homo sapiens, UniProt P11712)
Sequence (P11712 whole entry): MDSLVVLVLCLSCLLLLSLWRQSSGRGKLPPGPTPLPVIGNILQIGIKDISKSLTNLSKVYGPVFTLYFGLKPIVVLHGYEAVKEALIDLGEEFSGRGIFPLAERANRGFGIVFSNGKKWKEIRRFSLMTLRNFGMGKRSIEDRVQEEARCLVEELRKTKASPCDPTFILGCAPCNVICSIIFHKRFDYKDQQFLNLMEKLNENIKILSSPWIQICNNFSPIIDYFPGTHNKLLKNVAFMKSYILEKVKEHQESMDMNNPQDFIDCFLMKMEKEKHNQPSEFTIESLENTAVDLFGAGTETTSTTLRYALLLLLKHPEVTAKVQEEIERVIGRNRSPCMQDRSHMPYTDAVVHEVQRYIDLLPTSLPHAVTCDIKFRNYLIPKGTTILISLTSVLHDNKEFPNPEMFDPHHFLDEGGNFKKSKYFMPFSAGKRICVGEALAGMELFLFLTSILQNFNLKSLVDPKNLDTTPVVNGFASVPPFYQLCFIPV
pIC50: −log10 of the molar value.

[
  {
    "QUERY SMILES": "CCS(=O)(=O)N[C@@H]1C[C@]2(C)O[C@]1(C)[C@@H]1C(=O)N(c3ccc(C#N)c(C(F)(F)F)c3)C(=O)[C@@H]12",
    "TARGET ENTITY": "Cytochrome P450 2C9 (Homo sapiens, UniProt P11712)",
    "pIC50": "< 4.40"
  }
]

From: ChEMBL document CHEMBL3621143
